Measured values drawn from patent US4656173A for this set.

target: Serotoninergic (S2) receptor binding site (Homo sapiens); test: In vitro receptor binding, serotoninergic (S2); details: predictive correlate: lack of EPS (?)
Sequence (P28223 whole entry): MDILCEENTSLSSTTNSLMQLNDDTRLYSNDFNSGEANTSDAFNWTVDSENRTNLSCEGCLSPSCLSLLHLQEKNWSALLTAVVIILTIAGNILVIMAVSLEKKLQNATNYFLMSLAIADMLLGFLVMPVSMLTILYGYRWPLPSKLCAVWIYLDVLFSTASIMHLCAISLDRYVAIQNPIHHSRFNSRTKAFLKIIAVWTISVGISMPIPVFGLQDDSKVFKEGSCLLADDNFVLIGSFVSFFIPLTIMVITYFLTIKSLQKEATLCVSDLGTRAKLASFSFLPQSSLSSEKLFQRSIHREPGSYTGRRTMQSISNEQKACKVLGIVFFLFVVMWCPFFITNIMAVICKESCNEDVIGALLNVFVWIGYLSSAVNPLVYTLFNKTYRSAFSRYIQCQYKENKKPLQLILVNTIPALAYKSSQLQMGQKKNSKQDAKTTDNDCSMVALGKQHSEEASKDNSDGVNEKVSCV
pIC50: −log10 of the molar value.
Each entry below lists one item and its recorded pIC50 value.
MEASURE NAME: pIC50

• O=C1CC2(CCCC2)CC(=O)N1CCCCN1CCN(c2nsc3ccccc23)CC1 [BMY 13859, reference compound] = 9.00
• O=C1CC2(CCCC2)CC(=O)N1CCCCN1CCN(c2n[s+]([O-])c3ccccc23)CC1 (centres unmarked) = 6.52

----------
// values below are reported IC50
biological target: α-adrenergic (α1) receptor binding site; test: In vitro receptor binding, α-adrenergic (α1); details: predictive correlate: postural hypotension, palpitations
MEASURE NAME: IC50 (nM)

* O=C1CC2(CCCC2)CC(=O)N1CCCCN1CCN(c2n[s+]([O-])c3ccccc23)CC1 (centres unmarked) [Compound I] | 330
* O=C1CC2(CCCC2)CC(=O)N1CCCCN1CCN(c2nsc3ccccc23)CC1 [BMY 13859, reference compound] | 50

----------
molecular target: Muscarinic receptor binding site; assay: In vitro receptor binding, muscarinic; conditions: predictive correlate: dry mouth, constipation
MEASURE NAME: IC50

- O=C1CC2(CCCC2)CC(=O)N1CCCCN1CCN(c2nsc3ccccc23)CC1 [BMY 13859, reference compound]: > 1000 nM
- O=C1CC2(CCCC2)CC(=O)N1CCCCN1CCN(c2n[s+]([O-])c3ccccc23)CC1 (centres unmarked) [Compound I]: > 1000 nM

----------
biological target: Dopaminergic (D2) receptor binding site (Homo sapiens, UniProt P14416); test: In vitro receptor binding, dopaminergic (D2); settings: predictive correlate: antipsychotic efficacy, EPS liability
Sequence (P14416 whole entry): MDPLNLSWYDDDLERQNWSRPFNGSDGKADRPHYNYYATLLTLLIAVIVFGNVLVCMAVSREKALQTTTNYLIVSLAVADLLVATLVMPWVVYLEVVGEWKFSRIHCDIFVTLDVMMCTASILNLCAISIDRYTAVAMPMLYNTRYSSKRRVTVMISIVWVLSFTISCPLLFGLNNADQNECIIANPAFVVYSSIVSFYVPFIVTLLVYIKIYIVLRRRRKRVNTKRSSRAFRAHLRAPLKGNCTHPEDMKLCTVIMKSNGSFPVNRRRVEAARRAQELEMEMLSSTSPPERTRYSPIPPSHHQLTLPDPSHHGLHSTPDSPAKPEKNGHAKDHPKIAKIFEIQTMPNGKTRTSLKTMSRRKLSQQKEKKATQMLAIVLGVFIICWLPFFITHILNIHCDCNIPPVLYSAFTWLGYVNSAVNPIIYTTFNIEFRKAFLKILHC
MEASURE NAME: IC50 (nM)

• O=C1CC2(CCCC2)CC(=O)N1CCCCN1CCN(c2nsc3ccccc23)CC1 [BMY 13859, reference compound] = 10
